Overview of recorded EC50 for various molecules
- Tested on: HIV-2 strain (ROD)
- EXPERIMENT NOTES: Inhibition of replication of HIV-2 (ROD strain) in MT-4 cells, MTT assay
- Type: cell-based
- DETAILS: Human immunodeficiency virus 2, MT4, 120 h, read-out: EC50 (μM) HIV-2 (ROD)

Observe how each entry below is paired with its result.
[
  {
    "STRUCTURE NOTATION": "Cc1cccc(NC(=O)N2CCN(c3nc(C(N)=O)nc4sc(-c5ccc(F)cc5)cc34)CC2)c1",
    "EC50": "≥ 255 µM"
  },
  {
    "STRUCTURE NOTATION": "CCOC(=O)c1nc(N2CCN(C(=O)Nc3cccc(C)c3)CC2)c2cc(-c3ccc(F)cc3)sc2n1",
    "EC50": "≥ 156 µM"
  },
  {
    "STRUCTURE NOTATION": "CCOc1nc(N)nc2sc(-c3ccc(F)cc3)cc12",
    "EC50": "≥ 432 µM"
  }
]

In the following, a different molecule is considered.
Incoming: Requested field: EC50. Item: Nc1nc(N2CCN(C(=O)COc3ccc(Cl)cc3)CC2)c2nc(CCc3ccc(F)cc3)oc2n1
Outgoing: ≥ 32 µM

###

Recorded log10(EC50) by entry
- Test system: hRV-41
- EXPERIMENT NOTES: Rhinovirus type 41 antiviral assay in Hela Rh cells, MTS readout
- Format: cell-based, Human rhinovirus
- DETAILS: Human rhinovirus sp., HRV41, HeLa Rh, Hela Rh cells; read-out: hRV-41 EC50
Could you please treat all values as log10 of EC50 in µg/mL?

Example entries and their recorded answers appear below.
[
  {
    "STRUCTURE NOTATION": "CCCCCc1nc2c(N3CCN(C(=O)COc4ccc(OC)cc4)CC3)nc(N)nc2s1",
    "EXPERIMENTAL READOUT": "log10(EC50)",
    "TEST VALUE": 0.85
  },
  {
    "STRUCTURE NOTATION": "COc1cccc(CCc2nc3c(N4CCN(C(=O)COc5ccc(Cl)cc5)CC4)nc(N)nc3s2)c1",
    "EXPERIMENTAL READOUT": "log10(EC50)",
    "TEST VALUE": 1.32
  },
  {
    "STRUCTURE NOTATION": "COc1ccc(OCC(=O)N2CCN(c3nc(N)nc4sc(-c5ccc(F)cc5)nc34)CC2)cc1",
    "EXPERIMENTAL READOUT": "log10(EC50)",
    "TEST VALUE": 1.41
  },
  {
    "STRUCTURE NOTATION": "Nc1nc(N2CCN(C(=O)COc3ccc(O)cc3)CC2)c2nc(CCc3ccc(F)cc3)sc2n1",
    "EXPERIMENTAL READOUT": "log10(EC50)",
    "TEST VALUE": 0.35
  }
]

Incoming: Record request: log10(EC50) value, item CCCCCc1nc2c(N3CCN(C(=O)COc4ccc(Cl)cc4)CC3)nc(N)nc2s1
Outgoing: 0.03

###

- System: RLuc-1 cells
- EXPERIMENT NOTES: Cytotoxicity in HCV-1a replicon cells, Promega CellTiter-Glo cell viability assay
- DETAILS: read-out: HCV-1a Replicon CC50; replicon cells, 72 hours, CellTiter-Glo
EXPERIMENTAL READOUT: CC50 (µM)
// return numeric value only (unit: µM, not printed)

Incoming: So what's the measured CC50 for this one? Nc1nc(NCc2ccccc2)c2cc(-c3ccc(F)cc3)sc2n1 [Example 327]
Outgoing: 23.2
